System: HEK293
Test details: Cytotoxic Profiling of Annotated Libraries Using Quantitative High-Throughput Screening (AID 1296008); also: nearly all actives have a fitted effect of over 60% in size
Cond: Five cell lines viability, CellTiter-Glo ATP luminescence, 48-72 h
Inconclusive results are not listed. Active and inactive are the calls of the source. Calls follow the shape of the dose curve; as a rule, active = well fitted inhibition curve with a large enough effect; inconclusive = small, poorly fitted or top-dose-only effect; inactive = flat fitted curve, though single readings scatter.

[
  {
    "Compound": "CCC(=O)NS(=O)(=O)c1ccc(-c2c(-c3ccccc3)noc2C)cc1",
    "outcome": "inactive"
  },
  {
    "Compound": "CC1=CC(=O)OC(C)(CC(C)(O)C(=O)O)C1 (stereo not given)",
    "outcome": "inactive"
  },
  {
    "Compound": "CC(=O)OC(CSC1CCC(=O)OC(C)CCC(=O)C1)C(=O)O (stereo not given)",
    "outcome": "inactive"
  },
  {
    "Compound": "C=C[C@](C)(CC/C=C(\\C)C(=O)O)O[C@@H]1OC[C@H](O)[C@H](O)[C@H]1O",
    "outcome": "inactive"
  },
  {
    "Compound": "CCC(NC(=O)CC(NC(=O)C(CO)NC(=O)C(CC)NC(=O)c1ccc[nH]1)c1ccccc1)C(=O)O (stereo not given)",
    "outcome": "inactive"
  },
  {
    "Compound": "O=C1N(CC2CCCCN2)CCN1c1ccccc1 (stereo not given)",
    "outcome": "inactive"
  },
  {
    "Compound": "COc1ccc2cc(OCC3(C(=O)O)CN(C(=O)c4ccc(F)cc4)C3)ccc2c1",
    "outcome": "inactive"
  },
  {
    "Compound": "COC1(CC(C)C)NC(=O)C(O)(Cc2ccccc2)NC1=O (stereo not given)",
    "outcome": "inactive"
  },
  {
    "Compound": "CC(=O)OCCC(C)CCC1C(C)(O)CCC2C(C)(C)CCCC21C (stereo not given)",
    "outcome": "inactive"
  },
  {
    "Compound": "O=C(NCC(=O)N1CC[C@H](NC2CCC(O)(c3ccc(-c4ncccn4)cn3)CC2)C1)c1cccc(C(F)(F)F)c1 (stereo not given in full)",
    "outcome": "inactive"
  },
  {
    "Compound": "C/C=C(\\C)C(=O)O[C@@H]1CC2[C@@H](CC=C3C[C@@H](O[C@H]4C[C@H](OC)[C@H](O[C@H]5C[C@H](OC)[C@H](O[C@H]6C[C@H](OC)[C@H](O[C@H]7C[C@@H](OC)[C@H](O[C@@H]8O[C@H](CO)[C@@H](O)[C@H](O)[C@H]8O)[C@@H](C)O7)[C@@H](C)O6)[C@@H](C)O5)[C@@H](C)O4)CC[C@@]32C)[C@@]2(O)CC[C@H](C(C)=O)[C@@]12C (stereo not given in full)",
    "outcome": "inactive"
  },
  {
    "Compound": "CC1(O)CCC2C(C(=O)O)=COC(OC3OC(CO)C(O)C(O)C3OC(=O)/C=C/c3ccc(O)cc3)C21 (stereo not given)",
    "outcome": "inactive"
  },
  {
    "Compound": "Nc1nonc1C(=Nc1ccc(F)c(Cl)c1)NO",
    "outcome": "inactive"
  },
  {
    "Compound": "C[C@@H]1CC[C@]2(C(=O)O)CC[C@]3(C(=O)O)C(=CCC4[C@@]5(C)CC[C@H](O[C@@H]6O[C@@H](C)[C@H](O[C@@H]7O[C@H](CO)[C@@H](O)[C@H](O)[C@H]7O)[C@@H](O)[C@H]6O)C(C)(C)C5CC[C@]43C)C2[C@H]1C (stereo not given in full)",
    "outcome": "inactive"
  },
  {
    "Compound": "C=C1CC23CCC4[C@@](C)(CCC[C@@]4(C)C(=O)O)C2CCC1C3 (stereo not given in full)",
    "outcome": "inactive"
  },
  {
    "Compound": "CC1CCC2C(C)(C)C(O)CCC2(C)C12Cc1c(O)cc3c(c1O2)CN=C3N (stereo not given)",
    "outcome": "inactive"
  },
  {
    "Compound": "COc1cc(O[C@@H]2O[C@H](CO)[C@@H](O)[C@H](O)[C@H]2O)c(CCC(=O)OC[C@H]2O[C@@H](Oc3cc(OC)c(C4OC(=O)C(C)(O)C4O)cc3CCC(=O)O)[C@H](O)[C@@H](O)[C@@H]2O)cc1C1OC(=O)C(C)(O)C1O (stereo not given in full)",
    "outcome": "inactive"
  },
  {
    "Compound": "CC1=C2C3OC(=O)C(C)C3(O)CCC2(C)CCC1=O (stereo not given)",
    "outcome": "inactive"
  },
  {
    "Compound": "CCC(=O)N[C@@H]1Cc2ccccc2[C@H](c2ccccc2)C1",
    "outcome": "inactive"
  },
  {
    "Compound": "COC(=O)[C@@]1(O)C=CC[C@@H]2[C@@]3(C)C[C@@H](c4ccoc4)OC(=O)[C@H]3CC[C@]21C",
    "outcome": "inactive"
  },
  {
    "Compound": "Cc1c(CN(C)C(=O)/C=C/c2cnc3c(c2)CCC(=O)N3)oc2ccccc12",
    "outcome": "inactive"
  },
  {
    "Compound": "C/C(=C/CO)CC[C@@H]1[C@@]2(C)CCC[C@](C)(C(=O)O)C2CC[C@@]1(C)O (stereo not given in full)",
    "outcome": "inactive"
  },
  {
    "Compound": "CC1CCC2(C(=O)OC3OC(COC4OC(CO)C(O)C(O)C4O)C(O)C(O)C3O)CCC3(C)C(=CCC4C5(C)CCC(O)C(C)(C(=O)O)C5CCC43C)C2C1(C)O (stereo not given)",
    "outcome": "inactive"
  },
  {
    "Compound": "CC1=CC2(O)/C=C/C(C)(O)CC(O)/C=C/C(=O)OC23C(=O)NC(CC(C)C)C3C1C (stereo not given)",
    "outcome": "inactive"
  },
  {
    "Compound": "C=C(C(=O)O)[C@@H]1CC=C2CCC[C@H](C)[C@@]2(C)C1",
    "outcome": "inactive"
  },
  {
    "Compound": "CC(C)c1cc2c(c(O)c1O[C@@H]1O[C@H](CO)[C@@H](O)[C@H](O)[C@H]1O)CC1(O)CCC(O)C(C)(C)C1CC2 (stereo not given in full)",
    "outcome": "inactive"
  },
  {
    "Compound": "CC(=O)OC1C(O)C(C)=C(CCC(C)CC(=O)O)C2(C)CCCC(C)(C)C12 (stereo not given)",
    "outcome": "inactive"
  },
  {
    "Compound": "C/C=C(\\C)C(=O)O[C@@H](C)[C@H]1CC[C@]2(O)C3CCC4C[C@@H](OC5CC(OC)C(OC6CC(OC)C(OC7CC(OC)C(OC8OC(C)C(OC9OC(CO)C(O)C(O)C9O)C(OC)C8O)C(C)O7)C(C)O6)C(C)O5)CC[C@]4(C)C3[C@H](O)[C@@H](O)[C@]12C (stereo not given in full)",
    "outcome": "inactive"
  },
  {
    "Compound": "COC(=O)C1=CO[C@@H](O[C@@H]2O[C@H](CO[C@@H]3O[C@H](COC(=O)/C=C/c4ccc(O)cc4)[C@@H](O)[C@H](O)[C@H]3O)[C@@H](O)[C@H](O)[C@H]2O)[C@@H]2C(CO)=CC[C@H]12",
    "outcome": "inactive"
  },
  {
    "Compound": "CN1C(=O)c2ccccc2NC(=O)[C@]12O[C@@H]2c1cccc(O)c1",
    "outcome": "inactive"
  }
]

---

Test system: KB-3-1
Test details: Cytotoxic Profiling of Annotated Libraries Using Quantitative High-Throughput Screening (AID 1296008); also: nearly all actives have a fitted effect of over 60% in size; as to max response: % is scaled to controls: 0 for no effect and ±100 for the full control effect
Cond: Five cell lines viability, CellTiter-Glo ATP luminescence, 48-72 h; active compounds read low
Records with an inconclusive call do not appear.
Measure name: max response (%)

[
  {
    "Compound": "CC(=O)Oc1c(C)cc(OCC(O)CNC(C)C)c(C)c1C (stereo unspecified)",
    "Target or system": "KB-3-1",
    "Unit name": "%",
    "Reported value": 4.82
  },
  {
    "Compound": "Cn1ccnc1CCOC(c1cc2nccc(C(=O)O)c2[nH]1)c1ccccc1Cl (stereo unspecified)",
    "Target or system": "KB-3-1",
    "Unit name": "%",
    "Reported value": 2.27
  },
  {
    "Compound": "NC(=O)c1ccc(OCC2NC(=O)C3CCCN3C2=O)cc1 (stereo unspecified)",
    "Target or system": "KB-3-1",
    "Unit name": "%",
    "Reported value": 6.37
  },
  {
    "Compound": "C/C(=C/CO)CC[C@@H]1[C@@]2(C)CCC[C@](C)(C(=O)O)C2CC[C@@]1(C)O (stereo partly specified)",
    "Target or system": "KB-3-1",
    "Unit name": "%",
    "Reported value": 3.08
  },
  {
    "Compound": "C=CC1=C(C)C2=CC3=NC(=C(CC(=O)[O-])C4=NC(=C(C)C4=C([O-])[O-])C=c4[n-]c(c(C)c4CC)=CC1=N2)C(CCC(=O)[O-])C3C.[Cu+2].[Na+].[Na+].[Na+] (stereo unspecified)",
    "Target or system": "KB-3-1",
    "Unit name": "%",
    "Reported value": -6.08
  },
  {
    "Compound": "O=C(/C=C/c1ccc(O)c(O)c1)OCc1ccccc1O[C@@H]1O[C@H](CO)[C@@H](O)[C@H](O)[C@H]1O",
    "Target or system": "KB-3-1",
    "Unit name": "%",
    "Reported value": 0.279
  },
  {
    "Compound": "CC1(C)CCCC2(C)C3=C(C(=O)OC3O)C(O)CC12 (stereo unspecified)",
    "Target or system": "KB-3-1",
    "Unit name": "%",
    "Reported value": 2.72
  },
  {
    "Compound": "C=C1CC2C3(C)C(OC(C)=O)CC(=O)OC(C)(C)C3C(O)C(OC(C)=O)C2(C)C2C(=O)OC(C)C(=O)C12C (stereo unspecified)",
    "Target or system": "KB-3-1",
    "Unit name": "%",
    "Reported value": 8.43
  },
  {
    "Compound": "COc1cc([C@H]2OC[C@@H]3[C@@H](c4ccc(O[C@@H]5O[C@H](CO)[C@@H](O)[C@H](O)[C@H]5O)c(OC)c4)OC[C@]23O)ccc1O",
    "Target or system": "KB-3-1",
    "Unit name": "%",
    "Reported value": 3.2
  },
  {
    "Compound": "CC[C@@H](C(=O)[C@@H](C)[C@@H](O)[C@H](C)CCc1ccc(C)c(O)c1C(=O)O)[C@H]1O[C@](CC)([C@H]2CC[C@](O)(CC)[C@H](C)O2)C[C@@H]1C",
    "Target or system": "KB-3-1",
    "Unit name": "%",
    "Reported value": 10.1
  },
  {
    "Compound": "CC(=O)OCC(=O)[C@@]12OC3(CCCC3)O[C@@H]1C[C@H]1[C@@H]3CCC4=CC(=O)C=C[C@]4(C)[C@@]3(F)[C@@H](O)C[C@@]12C",
    "Target or system": "KB-3-1",
    "Unit name": "%",
    "Reported value": -4.92
  },
  {
    "Compound": "IC(I)I",
    "Target or system": "KB-3-1",
    "Unit name": "%",
    "Reported value": 9.13
  },
  {
    "Compound": "O=C(COc1ccc(Cl)cc1)NC1CCC(NC(=O)COc2ccc(Cl)cc2)CC1 (stereo unspecified)",
    "Target or system": "KB-3-1",
    "Unit name": "%",
    "Reported value": -4.12
  },
  {
    "Compound": "Cc1nnc(C(C)C)n1C1CC2CCC(C1)N2CC[C@H](NC(=O)C1CCC(F)(F)CC1)c1ccccc1 (stereo partly specified)",
    "Target or system": "KB-3-1",
    "Unit name": "%",
    "Reported value": -4.91
  },
  {
    "Compound": "CC1OC(OC2C(O)C(C(=O)O)OC(OC3CCC4(C)C(CCC5(C)C4C=CC4=C6CC(C)(C)CC(O)C6(C)CCC45C)C3(C)C)C2OC2OCC(O)C(O)C2O)C(O)C(O)C1O (stereo unspecified)",
    "Target or system": "KB-3-1",
    "Unit name": "%",
    "Reported value": 1.62
  },
  {
    "Compound": "COC(=O)C1=C[C@@H](O)[C@@H](O)[C@H](O[C@@H]2O[C@H](COC(=O)/C=C/c3ccccc3)[C@@H](O)[C@H](O)[C@H]2O)C1",
    "Target or system": "KB-3-1",
    "Unit name": "%",
    "Reported value": 3.55
  }
]
